- Tested on: LOX IMVI melanoma
- Experiment Summary: NCI tumour cell line growth inhibition, 48 h; in the data active means GI50 below about 0.43 µM; inactive means the rest
// allowed return values: true = active, false = inactive

-- ask For CCC1(O)C(=O)OCc2c1cc1n(c2=O)Cc2cc3ccc(C=O)cc3nc2-1 (configuration not stated) , which call appears in the assay record?
-- reply true

-- ask For COc1ccc(C(=O)COc2cccc(/C=C3\COc4ccc5ccccc5c4C3=O)c2)cc1 , which call appears in the assay record?
-- reply false

-- ask For Clc1nc(Cl)c2ncn(Cc3cccc(COc4cccc(OCc5cccc(Cn6cnc7c(Cl)nc(Cl)nc76)c5)c4)c3)c2n1 , which call appears in the assay record?
-- reply false

-- ask For O=C(CCl)Nc1ccc(Cl)cc1 , which call appears in the assay record?
-- reply false

-- ask For COc1cc(NC(=O)c2cc(O)c(CC=C(C)C)c(O)c2)cc2c1O[C@]1(C)CC[C@@H](O)C(C)(C)[C@H]1C2 , which call appears in the assay record?
-- reply false
